Cited source for all entries: patent EP0787493A1

molecular target: NMDA receptors; test: 3H-MK801 (Dizocilpine) binding in vitro; details: high affinity binding site; rat whole brain membranes; 5nM 3H-MK-801; glutamate, glycine and spermidine present; read-out: 3H-MK 801 / IC50 (µM) high
attribute_measured: IC50 (µM)
Provide only the numeric value, understood in µM.

Enter IC50 (test system NMDA receptors) for COc1ccc2c(c1OC)CCN(C)C2CCc1ccc(Cl)cc1 (stereo not shown)
3.6

Others:
Enter IC50 (test system NMDA receptors) for COc1cc2c(cc1OC)C(CCc1ccc(Cl)cc1)N(C)C1CCCCC21 (stereo not shown)
0.4

Enter IC50 (test system NMDA receptors) for COc1cc2c(cc1O)C(CCc1ccc(Cl)cc1)N(C)CC2 (stereo not shown)
0.09

Enter IC50 (test system NMDA receptors) for COc1cc2c(cc1OC)C(CC(OC(C)=O)c1ccc(Cl)cc1)N(C)CC2 (stereo not shown)
1.76

Enter IC50 (test system NMDA receptors) for COc1cc2c(cc1OC)C(CC(O)c1ccc(Cl)cc1)N(C)CC2 (single isomer, unassigned) [C]
0.12
